Task for the reader: assign each of the following compounds its reported IC50.
TESTED_ON: Phosphotyrosine-protein phosphatase PTPB (Mycobacterium tuberculosis)
Sequence (P96830 whole entry): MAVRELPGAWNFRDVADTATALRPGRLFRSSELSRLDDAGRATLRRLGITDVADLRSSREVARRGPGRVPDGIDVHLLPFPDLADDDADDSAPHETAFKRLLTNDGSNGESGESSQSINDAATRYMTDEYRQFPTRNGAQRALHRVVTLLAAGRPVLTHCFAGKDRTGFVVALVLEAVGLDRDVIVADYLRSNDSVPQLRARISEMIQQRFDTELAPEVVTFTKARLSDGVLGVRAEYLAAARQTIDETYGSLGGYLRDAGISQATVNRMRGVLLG
PROTOCOL_DETAILS: Inhibition of Mycobacterium tuberculosis PTPB expressed in Escherichia coli BL21 (DE3) assessed as residual activity
All answers are understood in µM, so give the number only.

[Q] Quick one: give measured IC50 for O=C1OC(c2ccccc2C(F)(F)F)C(c2ccc3ccccc3n2)=C1O (stereo in doubt; 1-E1)
[A] 31.1

[Q] Name the recorded IC50 of the item O=C1OC(c2ccccc2C(F)(F)F)C(c2ccc3ccccc3n2)=C1O (stereo in doubt; 1-E2) in your answer.
[A] 72.2

[Q] Answer with the recorded IC50 of Cc1onc(C(=O)O)c1-c1cccc(-c2cc(Cl)c(O)c(Cl)c2)c1 only.
[A] 25.8

[Q] Identify measured IC50 associated with O=C(O)C(=O)/C(=C/c1ccccc1C(F)(F)F)c1ccc2ccccc2n1
[A] 48.1
